- testedSystem: KRAS G12D (Homo sapiens, UniProt P01116, G12D)
- Sequence (P01116 1-188 isoform P01116-2 G12D): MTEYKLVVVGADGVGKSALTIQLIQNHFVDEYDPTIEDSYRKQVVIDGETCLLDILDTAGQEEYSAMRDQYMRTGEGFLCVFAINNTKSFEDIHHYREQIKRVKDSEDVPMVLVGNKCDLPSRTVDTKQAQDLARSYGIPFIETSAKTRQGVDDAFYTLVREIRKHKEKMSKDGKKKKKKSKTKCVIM
- assayName: HTRF KRAS-SOS1 interaction assay, KRAS G12D
- conditions: binned ≤2 μM / >2 μM, read-out: Inhibition of KRAS G12D (IC50)
Parameter IC50: see the listing below.

Below, 5 compounds whose answers are already recorded.
- C[C@H](c1cncnc1N)N1CCOc2c(C(F)(F)F)c(-c3ccc(F)c4sc(N)c(C#N)c34)c(F)c3nc(OC[C@@]45CCCN4C[C@H](F)C5)nc1c23 (single isomer, unassigned): ≤ 2000 nM
- C[C@H](c1cncnc1N)N1CCOc2c(C(F)(F)F)c(-c3ccc(F)c4sc(N)c(C#N)c34)c(F)c3nc(OCC4(CN5CCC(=CF)CC5)CC4)nc1c23: ≤ 2000 nM
- CCON=C1CN2CCC[C@@]2(COc2nc3c4c(c(Cl)c(-c5ccc(F)c6sc(N)c(C#N)c56)c(F)c4n2)OCCN3[C@H](C)c2cccnc2N)C1 (single isomer, unassigned): ≤ 2000 nM
- CC(Oc1nc2c3c(c(Cl)c(-c4ccc(F)c5sc(N)c(C#N)c45)c(F)c3n1)OCCN2[C@H](C)c1cccnc1N)[C@@H]1CC(F)(F)CN1C (single isomer, unassigned) [Compound 919]: ≤ 2000 nM
- C[C@H](c1cccnc1N)N1CCOc2c(Cl)c(-c3ccc(F)c4sc(N)c(C#N)c34)c(F)c3nc(OC[C@@]45CCCN4CC(CP(C)(C)=O)C5)nc1c23 (mixture of isomers): ≤ 2000 nM

Briefly, IC50 measured for `CC[C@H](c1cc(F)cnc1N)N1CCOc2c(C(F)(F)F)c(-c3ccc(F)c4sc(N)c(C#N)c34)c(F)c3nc(OC[C@@]45CCCN4C[C@H](F)C5)nc1c23` : ≤ 2000 nM

Briefly, IC50 measured for N#Cc1c(N)sc2c(F)ccc(-c3c(C(F)(F)F)c4c5c(nc(OC[C@@]67CCCN6C[C@H](F)C7)nc5c3F)N([C@H](C/C=C/C(F)(F)F)c3cccnc3N)CCO4)c12 (single isomer, unassigned) : ≤ 2000 nM

Briefly, IC50 measured for N#Cc1c(N)sc2c(F)ccc(-c3c(Cl)c4c5c(nc(OC[C@@]67CCCN6C[C@H](F)C7)nc5c3F)N(C(/C=C\F)c3cccnc3N)CCO4)c12 (single isomer, unassigned) : ≤ 2000 nM

Briefly, IC50 measured for C[C@H](c1cccnc1N)N1CCOc2nc(-c3ccc(F)c4sc(N)c(C#N)c34)c(F)c3nc(OC[C@@H]4CCCN4C)nc1c23 (single isomer, unassigned) : ≤ 2000 nM

Briefly, IC50 measured for C[C@H](c1cccnc1N)N1CCOc2c(C(F)(F)F)c(-c3ccc(F)c4sc(N)c(C#N)c34)c(F)c3nc(OC[C@@]45CCCN4CC(CN(C)C)C5)nc1c23 (mixture of isomers) : ≤ 2000 nM
